molecules and their reported IC50
- measured on: Carboxypeptidase B (Sus scrofa)
- Sequence (P09955 whole entry): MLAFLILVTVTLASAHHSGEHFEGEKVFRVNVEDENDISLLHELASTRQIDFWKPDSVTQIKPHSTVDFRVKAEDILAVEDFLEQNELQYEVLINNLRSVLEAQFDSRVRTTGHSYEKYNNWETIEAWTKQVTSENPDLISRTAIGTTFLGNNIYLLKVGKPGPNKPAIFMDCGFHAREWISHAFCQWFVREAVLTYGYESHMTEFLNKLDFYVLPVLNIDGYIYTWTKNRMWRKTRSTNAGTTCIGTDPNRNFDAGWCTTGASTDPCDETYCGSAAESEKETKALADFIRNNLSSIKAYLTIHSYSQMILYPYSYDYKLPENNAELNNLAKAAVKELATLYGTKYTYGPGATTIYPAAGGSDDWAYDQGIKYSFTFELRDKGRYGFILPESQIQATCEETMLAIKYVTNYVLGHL
- test: Inhibition of pig pancreatic carboxypeptidase B using Hip-Arg as substrate incubated for 10 mins prior to substrate addition measured after 30 mins by spectrophotometric analysis in presence of dithiothreitol
I only need the number, in nM, no unit after it.

Recorded IC50, per entry:
1) CCOC(=O)C(CCCCCN)C[Se]C(=O)CC (centres undefined) | 33
2) NCCCCCC(C[Se]C(=O)CCc1ccccc1)C(=O)O (centres undefined) | 3.2
3) Nc1ncc(CC(C[Se][Se]CC(Cc2cnc(N)c(Cl)c2)C(=O)O)C(=O)O)cc1Cl (centres undefined) | 1.5
4) NCCCCCC(C[Se]C(=O)CCCc1ccccc1)C(=O)O (centres undefined) | 3.2
5) CCOC(=O)C(C[Se]C(=O)CC)Cc1ccc(N)nc1 (centres undefined) | 2500
6) CCC(=O)[Se]CC(CCCCCN)C(=O)O (centres undefined) | 1.1

Req: What IC50 value was documented for this molecule, Nc1ccc(CC(C[Se][Se]CC(Cc2ccc(N)nc2)C(=O)O)C(=O)O)cn1 (centres undefined) ?
Resp: 0.19

Req: Query: IC50; subject: NCCCCCC(C[Se][Se]CC(CCCCCN)C(=O)O)C(=O)O (centres undefined)
Resp: 1.1

Req: Item under review: CCOC(=O)C(C[Se]C(=O)CC)Cc1cnc(N)c(Cl)c1 (centres undefined) . Reported IC50?
Resp: 130000
